Tested on: SN12C renal
EXPERIMENT_NOTES: NCI-60 one-dose screen, 48 h (100 = growth as untreated, 0 = no growth, -100 = all killed)
MEASUREMENT_CONDITIONS: 10 µM
About 83,000 compounds went through this panel and 20% of them were active in at least one assay; those are over-represented in the sample as a whole.
# label = Condition met if growth >= 30% else Condition not met

> print(dat)
                                    compound        label.value
 1  C=C1CCC2C3(C)COC(c4ccccc4F)OC3CCC2(C)C1C/C=C1/C(=O)OCC1O (configuration not stated)  Condition not met
 2  Cc1ccc(NC(=O)c2ccc(-n3c(=O)[nH]c4ccccc4c3=O)cc2)cc1      Condition met
 3  COc1ccc(-c2nc(-c3ccccc3)c(-c3ccccc3)n2-c2ccc(S(=O)(=O)Nc3ncccn3)cc2)cc1OC      Condition met
 4  Cc1ccc(/C(N)=N/c2sc(-c3ccccc3)nc2-c2ccccc2)cc1      Condition met
 5  O=C1Nc2ccc(Cl)cc2/C1=C/c1cccc(OCc2ccccc2)c1      Condition met
 6  CNC(=O)c1cc(-c2ccc(NC(=O)Nc3ccc(C)cc3)cc2)nc2cccnc12      Condition met
 7  Cc1cc(=O)oc2cc(OCCCCOc3ccc(/C=C/C(=O)Nc4ccc(F)c(Cl)c4)cc3)ccc12      Condition met
 8  CC(=O)Nc1ccc(-c2cn(-c3cccc(C(=O)Nc4ccc(Cl)c(C(F)(F)F)c4)c3)nn2)cn1  Condition not met
 9  O=C(CSc1nnc(-c2c[nH]c3ccccc23)n1-c1ccccc1)c1ccc(Cl)cc1      Condition met
10         O=C1N/C(=N\c2nccs2)S/C1=C\c1cccs1      Condition met

Please tell me: is the compound Cc1ccc(CSc2nc(Cl)c(C#N)c(-c3ccc(F)cc3)n2)cc1 at or over 30% in terms of growth?
Condition met

Try this compound too: COc1cc2c3c(n(CCCn4ccnc4)c(=O)c2cc1OC)-c1nc2c(cc1C3=O)OCO2
Condition not met

Then what about the compound COc1ccc(C(=O)NC(=S)N2CCN(c3ncnc4c3cnn4-c3ccccc3)CC2)cc1 ?
Condition met

Same thing, different compound: COc1ccc(-c2nc(S(=O)(=O)c3ccccc3)c(S(C)(=O)=O)o2)cc1
Condition not met

Subsequent entry: COc1cc(NC(=O)CSc2nnc(-c3ccc4nc(-c5ccc(Cl)cc5)[nH]c4c3)o2)cc(OC)c1OC
Condition met
